SUBJECT_OF_TEST: human M2 receptor (Homo sapiens, UniProt P08172)
Sequence (P08172 whole entry): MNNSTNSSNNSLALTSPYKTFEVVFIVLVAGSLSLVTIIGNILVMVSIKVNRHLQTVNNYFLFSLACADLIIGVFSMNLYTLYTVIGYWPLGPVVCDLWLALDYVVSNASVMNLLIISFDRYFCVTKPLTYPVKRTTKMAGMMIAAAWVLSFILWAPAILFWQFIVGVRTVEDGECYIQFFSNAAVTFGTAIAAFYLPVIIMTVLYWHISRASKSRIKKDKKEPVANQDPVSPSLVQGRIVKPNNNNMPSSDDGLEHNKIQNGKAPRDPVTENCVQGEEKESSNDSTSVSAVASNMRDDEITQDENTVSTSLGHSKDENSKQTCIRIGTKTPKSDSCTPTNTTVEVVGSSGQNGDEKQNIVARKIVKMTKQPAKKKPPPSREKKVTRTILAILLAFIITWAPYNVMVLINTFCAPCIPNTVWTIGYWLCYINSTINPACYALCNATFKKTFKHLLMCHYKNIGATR
EXPERIMENTAL_PARAMETERS: boosting of the acetylcholine effect at EC20 acetylcholine concentration; M2-GIRK1/4 reporter cells
Items are presented alongside their recorded Efficiency.
API: value field is a number in %; no unit string.

Past entries and their recorded results:
COMPOUND	ATTRIBUTE_MEASURED	EXPERIMENTAL_VALUE
CCC(NC(=O)c1cn(-c2c(F)cc(F)cc2F)c2nc(N3C[C@@H](O)CC3=O)ccc2c1=O)C(C)C (single isomer, unassigned)	Efficiency	100.0
CC(C)C(NC(=O)c1cn(-c2c(F)cc(F)cc2F)c2nc(N3CCNC3=O)ccc2c1=O)C(F)(F)F (racemic) [Example 537]	Efficiency	92.0
CC(NC(=O)c1cn(-c2c(F)cc(F)cc2F)c2nc(N3C[C@@H](C)NC3=O)ccc2c1=O)C(F)(F)C(F)(F)F (single isomer, unassigned)	Efficiency	98.0
O=C(N[C@@H](C1CC1)C(F)(F)F)c1cn(-c2c(F)cc(F)cc2F)c2nc(N3CCOC(CO)C3)ccc2c1=O (single isomer, unassigned)	Efficiency	89.0

## Task Request body: readout Efficiency, system human M2 receptor (Homo sapiens, UniProt P08172), query O=C(NC(CC(F)(F)F)C(F)(F)F)c1cn(-c2c(F)cc(F)cc2F)c2nc(N3CCNC3=O)ccc2c1=O (racemic) [Example 588] . Return the value.
## Result 100.0

Source of measurements: patent US20190367516A1
